- SYSTEM: full-length human PLD1 (Homo sapiens (Human), UniProt Q13393)
- Sequence (Q13393 other isoform, or with tags, fused parts or gaps): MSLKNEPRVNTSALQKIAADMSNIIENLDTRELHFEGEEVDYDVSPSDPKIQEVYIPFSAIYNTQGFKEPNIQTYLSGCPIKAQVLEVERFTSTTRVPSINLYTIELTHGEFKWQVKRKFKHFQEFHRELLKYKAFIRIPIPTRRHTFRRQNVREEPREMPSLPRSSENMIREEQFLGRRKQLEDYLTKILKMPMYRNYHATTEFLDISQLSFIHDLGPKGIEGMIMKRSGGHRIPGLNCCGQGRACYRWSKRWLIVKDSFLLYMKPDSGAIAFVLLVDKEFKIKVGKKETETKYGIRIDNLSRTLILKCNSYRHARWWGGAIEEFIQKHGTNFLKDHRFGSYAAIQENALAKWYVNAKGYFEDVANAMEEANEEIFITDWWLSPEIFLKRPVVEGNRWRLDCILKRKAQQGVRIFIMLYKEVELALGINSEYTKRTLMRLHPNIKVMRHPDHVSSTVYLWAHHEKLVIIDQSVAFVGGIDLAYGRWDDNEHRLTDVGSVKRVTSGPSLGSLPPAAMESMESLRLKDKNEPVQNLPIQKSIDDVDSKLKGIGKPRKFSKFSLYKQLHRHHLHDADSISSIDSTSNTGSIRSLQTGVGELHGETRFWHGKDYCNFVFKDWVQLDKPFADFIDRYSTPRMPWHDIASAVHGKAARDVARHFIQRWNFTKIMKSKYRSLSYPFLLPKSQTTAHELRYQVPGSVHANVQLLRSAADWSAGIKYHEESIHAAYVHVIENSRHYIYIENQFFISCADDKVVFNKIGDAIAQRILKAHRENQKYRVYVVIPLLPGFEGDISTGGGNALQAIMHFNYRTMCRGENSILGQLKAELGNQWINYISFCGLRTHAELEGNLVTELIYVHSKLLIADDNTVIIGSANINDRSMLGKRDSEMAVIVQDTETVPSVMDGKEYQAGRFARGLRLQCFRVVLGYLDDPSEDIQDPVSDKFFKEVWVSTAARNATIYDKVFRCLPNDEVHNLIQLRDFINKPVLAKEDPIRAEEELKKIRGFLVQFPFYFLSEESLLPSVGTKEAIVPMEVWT
- EXPERIMENTAL DETAILS: Evaluation of human PLD1 enzyme inhibitory activity (Amplex Red / choline oxidase fluorescence)
- Type: biochemical
- TEST PARAMETERS: full-length human PLD1 enzyme; read-out: PLD1 IC50
- Procedure: A method for measuring human PLD1 enzyme inhibitory activity using an enzyme in which a FLAG-tag is added to the N-terminus of full-length human PLD1 (1-1036 amino acids) is shown below. DNA fragment in which a FLAG-tag sequence is added to the 5′-end of full-length human PLD1 was amplified by PCR method, using commercially available human PLD1 gene (Promega KK) as a template. […]
# label = 1 if IC50 < 500 nM else 0

COMPOUND	LABEL VALUE
C[C@@H](C[C@H]1CC[C@]2(CC1)OC(=O)NN=C2c1cc(Cl)ccc1Cl)NC(=O)c1cc2ccccn2c1	1
CNC(=O)C(=O)N[C@@H](C)C[C@]1(C#N)CC[C@@]2(CC1)OC(=O)NN=C2c1ccc(OC(F)F)cc1Br	1
CNC(=O)C(=O)N[C@@H](C)C[C@H]1CC[C@]2(CC1)OC(=O)NN=C2c1cnccc1Br	1
Cc1cc(F)ccc1C1=NNC(=O)O[C@]12CC[C@@H](C[C@H](C)NC(=O)N1CC3CCCCC3C1)CC2 (mixture of isomers)	0
CNC(=O)C(=O)N[C@@H](C)C[C@H]1CC[C@]2(CC1)OC(=O)NN=C2c1ccc(F)cc1C(F)(F)F	1

Now, please, on to the next compound.
Query :: hey, is IC50 for CNC(=O)C(=O)NC[C@@H](C)N1CCC2(CC1)OC(=O)NN=C2c1ccc(C#N)cc1Br lower than 500 nM or not?
Result :: 0

This collection of values is drawn from patent US20240101572A1.
